Values compiled from ChEMBL document CHEMBL3822369.

# test: Cmax in BomTac:NMRI-Foxn1nu mouse at 20 mg/kg, po administered as suspension
# Type: ADME, organism-based
# Design: dose 20 mg/kg, route oral
# test-settings: in vivo
Reported Cmax values for a set of compounds
The answer is to be given in µM; state only the numeric part.

COc1cc(-c2cn(C)c(=O)c3cnccc23)cc(OC)c1CN(C)C = 3

Proceeding to the next compound to report its Cmax.
I am curious: what Cmax value has been reported for COc1cc(-c2cn(C)c(=O)c3cnccc23)c(OC)cc1CN(C)C ? 5.4

###

# test: Apparent permeability in human Caco2 cells across apical side to basolateral side at 10 uM by LC-MS/MS analysis
# Format: ADME, cell-based
# test-settings: Caco-2
Reported Papp A→B at 10 µM values for a set of compounds
The answer is to be given in ×10⁻⁶ cm/s; state only the numeric part.

COc1cc(-c2cn(C)c(=O)c3cnccc23)cc(OC)c1CN(C)C = 1.4

Proceeding to the next compound to report its Papp A→B at 10 µM.
I am curious: what Papp A→B at 10 µM value has been reported for COc1cc(-c2cn(C)c(=O)c3cnccc23)c(OC)cc1CN(C)C ? 11

###

# test: AUC (0 to last) in BomTac:NMRI-Foxn1nu mouse at 20 mg/kg, po administered as suspension
# Type: ADME, organism-based
# Set-up: dose 20 mg/kg, time 0 - last, route oral
# test-settings: in vivo
Reported AUC(0-t) values for a set of compounds
The answer is to be given in µM·h; state only the numeric part.

COc1cc(-c2cn(C)c(=O)c3cnccc23)cc(OC)c1CN(C)C = 7.5

Proceeding to the next compound to report its AUC(0-t).
I am curious: what AUC(0-t) value has been reported for COc1cc(-c2cn(C)c(=O)c3cnccc23)c(OC)cc1CN(C)C ? 15

###

# test: Cmax in BomTac:NMRI-Foxn1nu mouse at 180 mg/kg, po administered as suspension
# Assay type: ADME, organism-based
# Design: dose 180 mg/kg, route oral
# test-settings: in vivo
Reported Cmax values for a set of compounds
The answer is to be given in µM; state only the numeric part.

COc1cc(-c2cn(C)c(=O)c3cnccc23)c(OC)cc1CN(C)C = 35

Proceeding to the next compound to report its Cmax.
I am curious: what Cmax value has been reported for COc1cc(-c2cn(C)c(=O)c3cnccc23)cc(OC)c1CN(C)C ? 25

###

# test: Oral bioavailability in BomTac:NMRI-Foxn1nu mouse at 180 mg/kg, administered as suspension
# Format: ADME, organism-based
# test-settings: BomTac:NMRI-Foxn1nu, in vivo
property-name: bioavailability

I am curious: what bioavailability value has been reported for COc1cc(-c2cn(C)c(=O)c3cnccc23)cc(OC)c1CN(C)C ? 64%
